Biological target: Glycogen phosphorylase, liver form (Homo sapiens)
Sequence (P06737 whole entry): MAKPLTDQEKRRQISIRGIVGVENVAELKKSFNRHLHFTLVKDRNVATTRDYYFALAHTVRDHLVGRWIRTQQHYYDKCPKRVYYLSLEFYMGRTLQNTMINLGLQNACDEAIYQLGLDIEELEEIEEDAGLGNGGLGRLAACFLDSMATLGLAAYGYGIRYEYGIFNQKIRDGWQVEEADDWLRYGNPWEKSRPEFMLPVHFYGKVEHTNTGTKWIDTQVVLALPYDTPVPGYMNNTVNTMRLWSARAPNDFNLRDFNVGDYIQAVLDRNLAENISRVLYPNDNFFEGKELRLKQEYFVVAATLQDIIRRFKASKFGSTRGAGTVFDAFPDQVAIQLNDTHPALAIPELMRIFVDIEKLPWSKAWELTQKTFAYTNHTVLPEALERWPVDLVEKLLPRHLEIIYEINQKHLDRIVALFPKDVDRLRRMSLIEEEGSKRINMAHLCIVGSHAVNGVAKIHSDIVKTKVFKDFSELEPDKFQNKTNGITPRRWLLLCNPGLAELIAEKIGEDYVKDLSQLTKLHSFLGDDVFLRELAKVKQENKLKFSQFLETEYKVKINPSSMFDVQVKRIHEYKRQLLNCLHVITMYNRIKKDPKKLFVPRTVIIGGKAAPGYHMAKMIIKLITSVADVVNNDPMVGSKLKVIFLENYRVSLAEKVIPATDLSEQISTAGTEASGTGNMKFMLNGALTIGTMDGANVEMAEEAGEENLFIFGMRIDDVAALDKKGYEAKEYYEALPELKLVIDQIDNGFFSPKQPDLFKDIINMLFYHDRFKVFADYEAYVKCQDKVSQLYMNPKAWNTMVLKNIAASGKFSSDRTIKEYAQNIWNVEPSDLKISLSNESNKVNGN
Experiment: Inhibitory concentration against glycogen phosphorylase
Documented IC50 across a set of compounds
Experimental Readout: IC50 (nM)

[[record]]
compound = "CN(C(=O)CNC(=O)c1cc2cc(Cl)ccc2[nH]1)c1ccccn1"
number = 340

[[record]]
compound = "CN(C(=O)CNC(=O)c1cc2cc(Cl)ccc2[nH]1)C1CCOCC1"
number = 510

[[record]]
compound = "CC(O)(CO)CN(C(=O)CNC(=O)c1cc2cc(Cl)ccc2[nH]1)C1CCCC1 (stereo unspecified)"
number = 83

[[record]]
compound = "CN(C(=O)CNC(=O)c1cc2cc(Cl)ccc2[nH]1)C1CCC(O)CC1 (stereo unspecified)"
number = 2100

[[record]]
compound = "O=C(NCC(=O)N(CCO)C1CCc2ccccc21)c1cc2cc(Cl)ccc2[nH]1 (stereo unspecified)"
number = 49

[[record]]
compound = "NC(CO)CN(C(=O)CNC(=O)c1cc2cc(Cl)ccc2[nH]1)C1CCCC1 (stereo unspecified)"
number = 510

[[record]]
compound = "NCCCN(C(=O)CNC(=O)c1cc2cc(Cl)ccc2[nH]1)C1CCCC1"
number = 3000

[[record]]
compound = "CN(C(=O)CNC(=O)c1cc2cc(Cl)ccc2[nH]1)C1CCCCCC1"
number = 320

[[record]]
compound = "CN(CC(F)(F)F)C(=O)CNC(=O)c1cc2cc(Cl)ccc2[nH]1"
number = 1900

[[record]]
compound = "CN(Cc1cccnc1)C(=O)CNC(=O)c1cc2cc(Cl)ccc2[nH]1"
number = 1900

[[record]]
compound = "O=C(NCC(=O)N(CCCO)C1CCCC1)c1cc2cc(Cl)ccc2[nH]1"
number = 42

[[record]]
compound = "CC(C)OCCCN(C(=O)CNC(=O)c1cc2cc(Cl)ccc2[nH]1)C1CCCC1"
number = 670

[[record]]
compound = "CN(C(=O)CNC(=O)c1cc2cc(Cl)ccc2[nH]1)C1CCCCC1"
number = 150

[[record]]
compound = "CC(C)CN(C)C(=O)CNC(=O)c1cc2cc(Cl)ccc2[nH]1"
number = 230

[[record]]
compound = "O=C(NCC(=O)N(CCO)C1CCOC1)c1cc2cc(Cl)ccc2[nH]1 (stereo unspecified)"
number = 55

[[record]]
compound = "O=C(NCC(=O)N(C1CCCC1)C1CCCC1)c1cc2cc(Cl)ccc2[nH]1"
number = 660

[[record]]
compound = "O=C(NCC(=O)N(CCO)C1CCS(=O)(=O)C1)c1cc2cc(Cl)ccc2[nH]1 (stereo unspecified)"
number = 1300

[[record]]
compound = "CN(Cc1ccccn1)C(=O)CNC(=O)c1cc2cc(Cl)ccc2[nH]1"
number = 1500

[[record]]
compound = "CN(CC1CC1)C(=O)CNC(=O)c1cc2cc(Cl)ccc2[nH]1"
number = 470

[[record]]
compound = "CCCCN(CCO)C(=O)CNC(=O)c1cc2cc(Cl)ccc2[nH]1"
number = 120

[[record]]
compound = "CN(C(=O)CNC(=O)c1cc2cc(Cl)ccc2[nH]1)C1CCN(C=O)CC1"
number = 8400


###

organism: Mus musculus; test: Percentage of glucose lowering after 3h at minimum effective dose in mouse; format: functional
Experimental Readout: Activity

[[record]]
structure_as_smiles = "O=C(NCC(=O)N(CCO)C1CCC1)c1cc2cc(Cl)ccc2[nH]1"
result = "30%"

[[record]]
structure_as_smiles = "CC(C)(O)CN(C(=O)CNC(=O)c1cc2cc(Cl)ccc2[nH]1)C1CCCC1"
result = "30%"

[[record]]
structure_as_smiles = "CN(C)C(=O)[C@H](O)[C@H](Cc1ccccc1)NC(=O)c1cc2cc(Cl)ccc2[nH]1"
result = "32%"

[[record]]
structure_as_smiles = "O=C(NCC(=O)N(CCO)C1CCOCC1)c1cc2cc(Cl)ccc2[nH]1"
result = "27%"

[[record]]
structure_as_smiles = "CN(C(=O)CNC(=O)c1cc2cc(Cl)ccc2[nH]1)C1CCCC1"
result = "36%"

[[record]]
structure_as_smiles = "O=C(NCC(=O)N(CCO)C1CCCC1)c1cc2cc(Cl)ccc2[nH]1"
result = "25%"

[[record]]
structure_as_smiles = "N#CCN(C(=O)CNC(=O)c1cc2cc(Cl)ccc2[nH]1)C1CCCC1"
result = "40%"

[[record]]
structure_as_smiles = "CC(C)CN(CCO)C(=O)CNC(=O)c1cc2cc(Cl)ccc2[nH]1"
result = "25%"


###

Documented log10 of IC50 across a set of molecules
tested on: SK-HEP1; test: Inhibitory concentration against human SK-Hep-1 cells (hepatoma cell line); assay type: functional, cell-based
Experimental Readout: log10 of IC50 (log10 of the value in nM)

[[record]]
molecule = "CCOC(=O)CN(C(=O)CNC(=O)c1cc2cc(Cl)ccc2[nH]1)C1CCCC1"
target_or_test_system = "SK-HEP1"
number = 3.72

[[record]]
molecule = "CN(C(=O)CNC(=O)c1cc2cc(Cl)ccc2[nH]1)C1CCCC1"
target_or_test_system = "SK-HEP1"
number = 3.23

[[record]]
molecule = "O=C(NCC(=O)N(CCO)C1CCCCC1)c1cc2cc(Cl)ccc2[nH]1"
target_or_test_system = "SK-HEP1"
number = 2.85

[[record]]
molecule = "CC(O)(CO)CN(C(=O)CNC(=O)c1cc2cc(Cl)ccc2[nH]1)C1CCCC1 (stereo unspecified)"
target_or_test_system = "SK-HEP1"
number = 3.38

[[record]]
molecule = "CN(C(=O)CNC(=O)c1cc2cc(Cl)ccc2[nH]1)c1ccccn1"
target_or_test_system = "SK-HEP1"
number = 4.00

[[record]]
molecule = "O=C(NCC(=O)N(CCO)Cc1ncc[nH]1)c1cc2cc(Cl)ccc2[nH]1"
target_or_test_system = "SK-HEP1"
number = 4.15

[[record]]
molecule = "O=C(NCC(=O)N(CCO)C1CCOC1)c1cc2cc(Cl)ccc2[nH]1 (stereo unspecified)"
target_or_test_system = "SK-HEP1"
number = 3.26

[[record]]
molecule = "O=C(NCC(=O)N(C(CO)CO)C1CCCC1)c1cc2cc(Cl)ccc2[nH]1"
target_or_test_system = "SK-HEP1"
number = 3.97

[[record]]
molecule = "CN(C(=O)CNC(=O)c1cc2cc(Cl)ccc2[nH]1)c1ccccc1"
target_or_test_system = "SK-HEP1"
number = 3.85

[[record]]
molecule = "CC(C)CN(CCO)C(=O)CNC(=O)c1cc2cc(Cl)ccc2[nH]1"
target_or_test_system = "SK-HEP1"
number = 3.40

[[record]]
molecule = "CN(C(=O)CNC(=O)c1cc2cc(Cl)ccc2[nH]1)c1cccnc1"
target_or_test_system = "SK-HEP1"
number = 3.23

[[record]]
molecule = "O=C(NCC(=O)N(CCO)C1CCOCC1)c1cc2cc(Cl)ccc2[nH]1"
target_or_test_system = "SK-HEP1"
number = 3.15

[[record]]
molecule = "CN(C)C(=O)[C@H](O)[C@H](Cc1ccccc1)NC(=O)c1cc2cc(Cl)ccc2[nH]1"
target_or_test_system = "SK-HEP1"
number = 3.18


FYI, the data here is from ChEMBL document CHEMBL1144257.
